- target-of-assay: HLA-A*02:01 (Homo sapiens, UniProt P04439, D140Y/D185E/D98H/E176V/E277Q/G131W/G231S/I119V/I121R/I166T/I218V/L300P/L318F/N151K/N90K/P208A/P217A/Q86G/Q94H/R138H/R169H/T345S)
- measurement-notes: MHC binding assay (UV-ligand exchange, beta2m ELISA)
- measurement-conditions: binding to HLA-A*02:01, β2m ELISA
measured-metric: Peptide exchange (MHC class I binding score, peptide exchange yield)

Worked examples follow.
The measured Peptide exchange (MHC class I binding score, peptide exchange yield) associated with 71 (HMSGKLTNV; listed as Homo sapiens) [compound 71] reads ++ (≥20% = ++)

// sample 11 (LLDPKTIFL; listed as Homo sapiens) [compound 11] , its Peptide exchange (MHC class I binding score, peptide exchange yield) was +++ (≥50 = +++)

Entry 272 (FVMEGEPPKL; listed as Homo sapiens) [compound 272] — recorded Peptide exchange (MHC class I binding score, peptide exchange yield) = ++ (≥20% = ++)

Peptide exchange (MHC class I binding score, peptide exchange yield) recorded for this substance, 24 (KVWSDVTPL; listed as Homo sapiens) [compound 24] , is +++ (≥50 = +++)

---
194 (KLLEEVQLL; listed as Homo sapiens) [compound 194] has a reported Peptide exchange (MHC class I binding score, peptide exchange yield) of ++ (≥20% = ++)
